# system-tested: KRAS_G12D and cRAF (Homo sapiens, UniProt P01116, G12D)
# Sequence (P01116 1-188 isoform P01116-2 G12D): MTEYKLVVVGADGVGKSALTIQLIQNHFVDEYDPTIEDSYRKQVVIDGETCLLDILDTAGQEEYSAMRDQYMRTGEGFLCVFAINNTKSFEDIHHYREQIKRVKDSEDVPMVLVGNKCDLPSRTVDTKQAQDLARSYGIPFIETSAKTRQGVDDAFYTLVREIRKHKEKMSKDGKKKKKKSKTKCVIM
# assay-info: Inhibition of KRAS_G12D/cRAF binding (Cisbio binding kit, 665/615 ratio), Effect Embodiment B
# reported-conditions: read-out: GTP-KRAS-G12D:CRAF IC50
Counter-ions that a name gives are not always drawn.
measured-quantity: log10 IC50 (log10 of the value in nM)
A value of 2 here means IC50 of 100 in nM, since values are log10.

Some solved entries appear below for comparison.
{"compound": "Oc1cc(-c2c(Cl)cc3c(N4CC5CCC(C4)N5)nc(OCCCN4CC5CCC4CO5)nc3c2F)c2ccccc2c1 (single isomer, unassigned) [Compound 187b]", "log10 IC50": 2.06}
{"compound": "CN(C)[C@H]1C[C@H](Oc2nc(N3CC4CCC(C3)N4)c3cc(Cl)c(-c4cc(O)cc5ccccc45)c(F)c3n2)C1 (single isomer, unassigned) [Compound 69b, dihydrochloride]", "log10 IC50": 3.29}
{"compound": "C[C@@H]1CN(CCCOc2nc(N3CC4CCC(C3)N4)c3cc(Cl)c(-c4cc(O)cc5ccccc45)c(F)c3n2)CCO1 (single isomer, unassigned)", "log10 IC50": 2.31}
{"compound": "CCc1cccc2cc(O)cc(-c3c(F)cc4c(N5CC6CCC(C5)N6)nc(OC[C@H](C)CN5C6CCC5CC(OC)C6)nc4c3F)c12 (single isomer, unassigned) [Compound 286a, dihydrochloride]", "log10 IC50": 0.99}

Go through the items and report each one's log10 IC50.
1. Oc1cc(-c2c(Cl)cc3c(N4CC5CCC(C4)N5)nc(OCCCN4CCOCC4)nc3c2F)c2ccccc2c1 (single isomer, unassigned) [Compound 54a]
2. N=C(N)NCCCOc1nc(N2CC3CCC(C2)N3)c2cc(Cl)c(-c3cc(O)cc4ccccc34)c(F)c2n1 (single isomer, unassigned)
3. CC1OCCN(CCCOc2nc(N3CC4CCC(C3)N4)c3cc(Cl)c(-c4cc(O)cc5ccccc45)c(F)c3n2)C1C (single isomer, unassigned) [Compound 265b]
4. Oc1cc(-c2c(Cl)cc3c(N4CC5CCC(C4)N5)nc(OCC45CCCN4CCC5)nc3c2F)c2ccccc2c1 (single isomer, unassigned) [Compound 199]
5. CCc1cccc2cc(O)cc(-c3c(F)cc4c(N5CC6CCC(C5)N6)nc(OCCCN5CCOC[C@H]5C)nc4c3F)c12 (single isomer, unassigned) [Compound 282a, dihydrochloride]

Reply:
1: 2.01; 2: 2.06; 3: 2.30; 4: 0.95; 5: 1.13

Go through the items and report each one's log10 IC50.
1. CN(C)CCCCCOc1nc(N2CC3CCC(C2)N3)c2cc(Cl)c(-c3cc(O)cc4ccccc34)c(F)c2n1 (single isomer, unassigned)
2. CN(C)CCCNc1nc(N2C[C@H]3CC[C@@H](C2)N3)c2cc(Cl)c(-c3cc(O)cc4ccccc34)c(F)c2n1 (single isomer, unassigned) [Compound 55a]
3. C[C@@H]1CCCN1CCCOc1nc(N2CC3CCC(C2)N3)c2cc(Cl)c(-c3cc(O)cc4ccccc34)c(F)c2n1 (single isomer, unassigned) [Compound 108a, dihydrochloride]
4. Oc1cc(-c2c(Cl)cc3c(N4CC5CCC(C4)N5)nc(OCCN4C5CC6CC4CC(C5)O6)nc3c2F)c2ccccc2c1 (single isomer, unassigned)

Reply:
[2.68, 4.00, 2.33, 2.19]

Values were extracted from patent US20230365563A1.
